# Assay Info: NMTRC 002: DFMO serum pharmacokinetics in children with NB
# Protocol Conditions: human, serum, po, 1500 mg/m2, tmax, 1500 mg/m^2 PO BID, Cycle 2 (with etoposide)
# Description: Pharmacokinetic (PK) Analytical Method and Sample Collection. Patients were consented for all pharmacokinetic sampling and analysis. […] The extracted samples were injected into a liquid chromatograph equipped with an Atlantis Hilic Silica, 50×4.6 mm, 3 μm column. The mobile phase A was a mixture of Milli-Q type water with acetonitrile and ammonium acetate. The validated calibration range for this assay was from 50 to 100,000 ng/mL. […]

>  <Molecule>
NCCCC(N)(C(=O)O)C(F)F (stereo not shown)

>  <Unit Spec>
h

>  <Tmax>
2.5

$$$$

* * *

# Assay Info: NMTRC 002: DFMO serum pharmacokinetics in children with NB
# Protocol Conditions: human, serum, po, 1500 mg/m2, Cmax mean ± SD, 1500 mg/m^2 PO BID, Cycle 2 (with etoposide)
Measured Property: Cmax (ng/mL)

>  <Compound>
NCCCC(N)(C(=O)O)C(F)F (stereo not shown) [DFMO]

>  <Measured Property>
Cmax

>  <Number>
30700

$$$$

Cited source: patent US12582625B2
